Cited source for all entries: the Human Domainome abundance scans (Beltran et al. 2025)

B1: Gamma-crystallin C, residues 91 to 170; numbered along this chain, P07315 (parent)
chain: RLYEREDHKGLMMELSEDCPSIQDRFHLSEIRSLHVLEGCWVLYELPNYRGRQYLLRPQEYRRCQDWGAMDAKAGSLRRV

# Variants of: B1
# assayDetails: abundance fitness (aPCA) (normalised: wild type 0, dead -1); higher = more abundant; growth selection in yeast, the domain comes from the species named
# measurementContext: Homo sapiens
propertyName: abundance fitness
Respond numerically, and do not add a unit to the figure.

Worked cases, abundance fitness given:
# mutationString, measValue
measured = [
    ("Y61R", -1.06),
    ("R32G", 0.082),
]

QUERY: Could you tell me which abundance fitness is on file for S16P ?
RESULT: -0.859
